Provenance of the data: patent US11597708B2

# TARGET OR SYSTEM: HSF1 (Homo sapiens, UniProt Q00613)
# Construct: functionally linked to an hsp70b promoter and therefore controlled by endogenous HSF1; endogenous in cells
# Sequence (Q00613 whole entry): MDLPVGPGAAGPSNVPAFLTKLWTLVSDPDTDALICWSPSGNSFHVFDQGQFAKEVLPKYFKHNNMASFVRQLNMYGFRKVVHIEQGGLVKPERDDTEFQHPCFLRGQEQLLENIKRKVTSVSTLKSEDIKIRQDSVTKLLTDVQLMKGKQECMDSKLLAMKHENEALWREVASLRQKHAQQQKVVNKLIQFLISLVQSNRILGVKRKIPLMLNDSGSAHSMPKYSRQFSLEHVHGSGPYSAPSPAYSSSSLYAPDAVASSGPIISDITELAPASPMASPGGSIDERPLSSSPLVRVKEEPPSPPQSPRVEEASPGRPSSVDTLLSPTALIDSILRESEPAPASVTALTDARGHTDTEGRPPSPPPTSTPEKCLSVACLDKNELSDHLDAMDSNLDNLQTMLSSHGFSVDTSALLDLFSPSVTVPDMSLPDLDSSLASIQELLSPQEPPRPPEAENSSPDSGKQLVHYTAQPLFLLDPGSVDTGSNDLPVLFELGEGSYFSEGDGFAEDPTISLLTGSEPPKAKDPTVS
# EXPERIMENT: Z74 cell-based reporter assay: heat-induced RLuc expression controlled by endogenous HSF1
# REPORTED CONDITIONS: Z74 cells, inhibition of HSF1 activity [RLuc]
Give IC50 for every item shown.
Unit µM implied. Number only.

Query block: So what does the record say about IC50 for `CCOC(=O)/C=C/C(=O)Nc1nc(-c2ccccn2)cs1` ?
Result block: 20.2

Query block: Consider next the compound `CCOC(=O)/C=C/C(=O)Nc1ncc(-c2ccccc2C)s1` in the same way.
Result block: 14.7

* * *

Give IC50 for every item shown.
# TARGET OR SYSTEM: HSF1 (Homo sapiens)
# Construct: functionally linked to an hsp70b promoter and therefore controlled by endogenous HSF1; endogenous in cells
# EXPERIMENT: Z74 cell-based reporter assay: heat-induced RLuc expression controlled by endogenous HSF1
# REPORTED CONDITIONS: Z74 cells, inhibition of HSF1 activity [RLuc]
# From the text: For screening this sublibrary, a cell-based assay was developed. We opted for a cell-based assay, because a cell-free assay would have had to be a DNA-binding assay. […] Compounds would be scored as hits that inhibit any factor that is involved in HSF1 activation or prevents HSF1 deactivation. […] A compound was scored as a hit, if it inhibited the activity of wild type HSF1 but not of chimeric HSF1. […]

Query block: So what does the record say about IC50 for `CCOC(=O)/C=C/C(=O)N(CCN1CCOCC1)c1nccs1` ?
Result block: > 25 µM

Query block: Consider next the compound `CCOC(=O)/C=C/C(=O)N(CCc1ccccn1)c1nccs1` in the same way.
Result block: > 25 µM

Query block: Consider next the compound `O=C(/C=C/c1nnco1)Nc1nccs1` in the same way.
Result block: > 25 µM
